src = PubChem BioAssay (EPA / NIEHS)

assay: ATG_M_19_CIS: Attagene CIS-FACTORIAL HepG2 Assay for M19 Transcription Factor (Internal Marker) (AID 2282939); details: HepG2 Attagene CIS-FACTORIAL M19 internal marker reporter; actives raise or lower the signal
Active and inactive are the calls of the source. Rule for the calls: active = hit-call score of the fitted dose curve at least 0.9, where 1 is the maximum; inactive = score below 0.9.
Give one outcome, nothing more. List: active, inactive

Completed entries (count: 5):
[[record]]
molecule = "CC(C)OC(=O)COc1ccc(Cl)cc1Cl"
class_label = "inactive"

[[record]]
molecule = "CC(C)(C)c1cc(CCC(=O)NCCCCCCNC(=O)CCc2cc(C(C)(C)C)c(O)c(C(C)(C)C)c2)cc(C(C)(C)C)c1O"
class_label = "inactive"

[[record]]
molecule = "CCOCOCC"
class_label = "inactive"

[[record]]
molecule = "Cc1cc(=O)[nH]c(C(C)C)n1"
class_label = "inactive"

[[record]]
molecule = "CCCCCCCCCCCCCC[P+](CCCC)(CCCC)CCCC"
class_label = "inactive"


Which outcome did this test record for the molecule NC(O)(C(F)(F)F)C(F)(F)F ?
inactive

Input CC(C)CCCC(C)CCO (stereo unspecified)
inactive

Quick one: CCCCOC(=O)C(C)O (stereo unspecified)
inactive

Item: O=S(=O)(O)CCC(F)(F)C(F)(F)C(F)(F)C(F)(F)C(F)(F)C(F)(F)C(F)(F)C(F)(F)F
inactive

Same for Cc1ccc(S(=O)(=O)C(I)I)cc1
inactive

----------
experiment: ATG_ERE_CIS: Attagene CIS-FACTORIAL HepG2 Assay for Estrogen Response Element (ERE) (AID 2282940); conditions: HepG2 ERE cis-reporter, Attagene RNA transcript; actives raise or lower the signal
Calls of active or inactive are those of the source. How the source made its calls: active means hit-call score of the fitted dose curve at least 0.9, where 1 is the maximum; inactive means score below 0.9.
Thanks in advance; please answer with one of these: 1 = active, -1 = inactive

[[record]]
compound = "COCCC(=O)OC"
class_label = -1

[[record]]
compound = "CCCCCCCCn1sc(Cl)c(Cl)c1=O"
class_label = 1

[[record]]
compound = "CC(C)CC=C(C=O)c1ccccc1"
class_label = 1


Recorded test outcome, item O=C(O)C(F)(F)C(F)(F)C(F)(F)OC(F)(F)F
-1

Entry CCC(Cc1c(I)cc(I)c(N)c1I)C(=O)O (stereo not drawn) please
1

Can you check CC(C)(C)C(=O)C1C(=O)c2ccccc2C1=O next?
-1

What do you have for COCCOCCC[Si](C)(O[Si](C)(C)C)O[Si](C)(C)C ?
-1

Same question for O=C(Cl)C(F)(F)C(F)(F)C(F)(F)C(F)(F)C(F)(F)C(F)(F)F please.
-1

Item: O=c1cccc[nH]1
-1

Item: NS(=O)(=O)C(F)(F)C(F)(F)C(F)(F)C(F)(F)C(F)(F)C(F)(F)F
1

Moving on to O=S(=O)(O)CCC(F)(F)C(F)(F)C(F)(F)C(F)(F)C(F)(F)C(F)(F)C(F)(F)C(F)(F)F
-1

How about this compound: CC1=CCC2C(=O)OC(=O)C2C1 (stereo not drawn)
-1

Also O=c1[nH]cccc1O , if possible.
-1

----------
assay: BSK_4H_SRB: Viability Assessment in the BioMAP Diversity Plus: 4H Assay (AID 2283027); conditions: primary human endothelial cells (HUVEC);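 note: cells exposed to compound for 24 h before staining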
Activity calls are given as the source filed them. The calls were made as follows: active = hit-call score of the fitted dose curve at least 0.9, where 1 is the maximum; inactive = score below 0.9.
Respond using exactly one of the listed classes: Y = active, N = inactive

Worked cases, answers included:
[[record]]
molecule = "OCC(O)CC(F)(F)C(F)(F)C(F)(F)C(F)(F)C(F)(F)C(F)(F)C(F)(F)C(F)(F)F (configuration not stated)"
class_label = "N"

[[record]]
molecule = "OCC(F)(F)C(F)(F)C(F)(F)CO"
class_label = "N"

[[record]]
molecule = "NCC(F)(F)C(F)(F)C(F)(F)C(F)(F)C(F)(F)C(F)(F)C(F)(F)C(F)(F)F"
class_label = "N"

[[record]]
molecule = "CC(C)CCCC(C)CCO (configuration not stated)"
class_label = "Y"

[[record]]
molecule = "Nc1cc([N+](=O)[O-])cc(Cl)c1O"
class_label = "N"


What classification did FC(F)(F)C(F)(F)C(F)(F)C(F)(F)C(F)(F)C(F)(F)CC[Si](Cl)(Cl)Cl end up with in this test?
N

Then this molecule: Cc1cc(C)c(O)c(C(C)(C)C)c1
Y

Let us now turn to Cc1cnccn1
N

Next record, please: CCOC(=O)CC(=O)C(F)(F)C(F)(F)F
N

One more molecule: CN(C(=O)C(F)(F)C(F)(F)C(F)(F)F)[Si](C)(C)C
N

Follow-up entry: Cc1cc(O)c(C(C)(C)C)cc1C(C)(C)C
Y

Subsequent entry: OC(O)C(F)(F)C(F)(F)F
N
